Target: T1, recombinant human interleukin 12 (p40/p35 heterodimer) (human, UniProt P29460 23-328; P29459 23-219)
T1 chain 1: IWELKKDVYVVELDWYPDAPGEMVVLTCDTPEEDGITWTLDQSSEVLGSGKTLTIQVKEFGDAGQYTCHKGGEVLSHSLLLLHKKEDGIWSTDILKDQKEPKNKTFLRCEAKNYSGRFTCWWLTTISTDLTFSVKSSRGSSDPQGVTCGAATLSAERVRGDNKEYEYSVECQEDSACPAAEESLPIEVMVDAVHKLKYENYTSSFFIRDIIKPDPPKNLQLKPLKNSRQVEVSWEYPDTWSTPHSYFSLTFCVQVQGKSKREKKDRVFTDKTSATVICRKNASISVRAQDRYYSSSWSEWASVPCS
T1 chain 2: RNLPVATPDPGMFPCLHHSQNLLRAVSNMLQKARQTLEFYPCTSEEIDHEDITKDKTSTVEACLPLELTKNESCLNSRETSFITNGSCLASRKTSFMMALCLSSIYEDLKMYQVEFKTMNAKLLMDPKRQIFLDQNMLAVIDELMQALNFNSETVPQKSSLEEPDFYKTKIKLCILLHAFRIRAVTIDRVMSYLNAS
Assay: BIAcore
Cut-off 0.0003 s⁻¹ on koff, inclusive. At or above means Yes; below means No.

• FTFSSYIMH [Y61 H33 I] = Yes
• FTFSSYEMH [Y61 H33 E] = Yes
• FTFSSYYMH [Y61 H33 Y] = Yes
• FTFSSHGMH [Y61 H32 H] = Yes
• FTFSNYGMH [Y61 H31 N] = No
• FTFSSYVMH [Y61 H33 V] = Yes
• FTFRSYGMH [Y61 H30 R] = No
• FTFISYGMH [Y61 H30 I] = No
• FTFGSYGMH [Y61 H30 G] = No
• FTFYSYGMH [Y61 H30 Y] = Yes
• FTFKSYGMH [Y61 H30 K] = No
• FTFSSNGMH [Y61 H32 N] = Yes
• FTFSSVGMH [Y61 H32 V] = Yes
• FTFVSYGMH [Y61 H30 V] = Yes
• FTFSSSGMH [Y61 H32 S] = Yes
